// provenance: ChEMBL document CHEMBL5442219

- target_or_test_system: Alpha-2A adrenergic receptor (Homo sapiens) (UniProt P08913)
- Sequence (P08913 whole entry): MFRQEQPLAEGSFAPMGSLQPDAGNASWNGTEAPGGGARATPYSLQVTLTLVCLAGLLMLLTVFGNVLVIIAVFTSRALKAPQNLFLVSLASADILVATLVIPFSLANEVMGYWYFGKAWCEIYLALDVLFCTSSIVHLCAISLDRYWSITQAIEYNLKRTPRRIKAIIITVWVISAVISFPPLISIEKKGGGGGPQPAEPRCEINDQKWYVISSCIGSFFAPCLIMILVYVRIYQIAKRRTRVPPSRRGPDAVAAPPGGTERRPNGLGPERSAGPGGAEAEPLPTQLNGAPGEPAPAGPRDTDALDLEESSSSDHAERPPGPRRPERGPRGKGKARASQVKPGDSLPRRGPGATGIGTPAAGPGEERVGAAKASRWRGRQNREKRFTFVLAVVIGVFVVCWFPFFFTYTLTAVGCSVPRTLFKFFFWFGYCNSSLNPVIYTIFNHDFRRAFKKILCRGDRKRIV
- condition_label: Compound concentration 10 µM
- Description: PDSP Primary Binding target: ADRA2A - Compounds are tested at 10 uM concentration, plate are incubated at room temperature in the dark for 90 minutes. Reaction are stopped by vacuum filtration onto 0.3% polyethyleneimine soaked filter mats using Filtermate harvester. Scintilation cocktail is then melted onto microwave-dried filters on a hot plate and the radio activity is counted in Microbia counter.
reported_property: inhibition (%)
Respond with the bare value in %.

Reference set (3 entries):
- compound: "C[N+]1(C)[C@@H]2C[C@@H](OC(=O)C(O)(c3cccs3)c3cccs3)C[C@H]1[C@@H]1O[C@@H]12"
  target_or_test_system: "Alpha-2A adrenergic receptor (Homo sapiens) (UniProt P08913)"
  inhibition (%): 6.5
- compound: "Clc1ccc(CCCOCCCN2CCCCC2)cc1"
  target_or_test_system: "Alpha-2A adrenergic receptor (Homo sapiens) (UniProt P08913)"
  inhibition (%): -7.75
- compound: "CCc1nn2c(C)cc(C)nc2c1Cc1ccc(-c2nnc(C3CCNCC3)o2)cc1"
  target_or_test_system: "Alpha-2A adrenergic receptor (Homo sapiens) (UniProt P08913)"
  inhibition (%): 42.9

Look up inhibition: CCc1cc(C(C)=O)c(O)cc1OCCCCCC(C)(C)c1nn[nH]n1
14

Look up inhibition: NC[C@@H]1O[C@H](C23CC4CC(CC(C4)C2)C3)Cc2c1ccc(O)c2O
85.1

Could you tell me which inhibition is on file for CCOC(=O)c1c(C)[nH]c2ccc3c(c12)CN1CCc2cc(OC)ccc2C1O3 (configuration not stated) ?
86.7

Requested field: inhibition. Item: CN(C)C(=O)C(CCN1CCC(O)(c2ccc(Cl)cc2)CC1)(c1ccccc1)c1ccccc1
47.1
